Target: wild-type human melanocortin 4 receptor (WT-hMC4R) (Homo sapiens, UniProt P32245)
Construct: cDNA from UMR cDNA resource center
Sequence (P32245 whole entry): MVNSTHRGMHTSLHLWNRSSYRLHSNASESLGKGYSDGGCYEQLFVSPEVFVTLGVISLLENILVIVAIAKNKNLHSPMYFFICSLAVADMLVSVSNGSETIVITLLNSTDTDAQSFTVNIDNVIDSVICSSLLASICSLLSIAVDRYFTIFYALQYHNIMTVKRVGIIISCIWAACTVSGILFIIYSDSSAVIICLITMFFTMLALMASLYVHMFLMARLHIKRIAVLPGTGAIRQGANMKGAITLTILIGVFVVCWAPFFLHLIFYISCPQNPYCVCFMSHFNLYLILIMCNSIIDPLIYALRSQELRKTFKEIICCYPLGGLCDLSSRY
Assay: Cyclic AMP assay (HTRF), antagonist competition against NDP-α-MSH
Settings: HEK293T cells expressing double-tagged WT-hMC4R; cAMP accumulation; 1 hour compound then 4 nM NDP-α-MSH 30 min
Experimental: Intracellular cyclic 3′-5′ adenosine monophosphate (cAMP) accumulation was measured using a competitive immunoassay based on HTRF (Homogeneous Time-Resolved Fluorescence) technology (cAMP dynamic-2, Cis-Bio). HEK293T stable cell line expressing double-tagged WT-hMC4R construct were collected and washed in cAMP buffer (1XD-PBS pH 7.4, 0.1% glucose). […] Reading of HTRF signal was performed on Artemis TR-FRET plate reader (Cosmo Bio). […]
pIC50: −log10 of the molar value.
measured-quantity: pIC50

{"columns": ["compound", "pIC50"],
 "data": [
  ["CCCCCN(CCCCC)C(=O)c1ccn2nc(-c3ccccc3)c(/C=C/CN3CCCCC3)c2c1", "5.30 to 6.00"],
  ["COc1ccc(Cl)cc1-c1nn2ccc(C(=O)N(CCC(C)C)CCC(C)C)cc2c1/C=C/CN1CCCCC1", "5.30 to 6.00"],
  ["CC(C)CCN(CCC(C)C)C(=O)c1ccn2nc(-c3ccc(F)cc3)c(/C=C/CN3CCCCC3)c2c1", "6.00 to 6.30"],
  ["CCCCN(CCCC)C(=O)c1ccn2nc(-c3cc(OC)c(OC)c(OC)c3)c(CCCN3CCCCC3)c2c1", "6.00 to 6.30"],
  ["COc1ccc(-c2nn3ccc(C(=O)N(CCC(C)C)CCC(C)C)cc3c2CCCN2CCCCC2C)cc1 (stereo not shown)", "6.00 to 6.30"]
]}

Q: Query: pIC50; subject: "CCCCCN(CCCCC)C(=O)c1ccn2nc(-c3ccc(C)cc3)c(/C=C/CN3CCCCC3)c2c1"
Result: 5.30 to 6.00

Q: Could you share which pIC50 value was measured for "COc1ccccc1-c1nn2ccc(C(=O)N(CCC(C)C)CCC(C)C)cc2c1CCCN1CCCCC1" ?
Result: 5.30 to 6.00

###

target: wild-type human melanocortin 4 receptor (WT-hMC4R) (Homo sapiens); construct: cDNA from UMR cDNA resource center; assay: Cyclic AMP assay (HTRF), antagonist competition against NDP-α-MSH; conditions: HEK293T cells expressing double-tagged WT-hMC4R; cAMP accumulation; 1 hour compound then 4 nM NDP-α-MSH 30 min
measured-quantity: IC50

Would you please look over these solved cases?
{"columns": ["molecule", "IC50"],
 "data": [
  ["COc1ccc(-c2nn3ccc(C(=O)N(CCC(C)C)CCC(C)C)cc3c2CCCN2CCOCC2)cc1", "< 0.5 µM"],
  ["CCCNCCCc1c(-c2ccc(OC)cc2)nn2ccc(C(=O)N(CCC(C)C)CCC(C)C)cc12", "1 to 5 µM"]
]}

Q: I am curious: what IC50 value has been reported for "COc1ccc(-c2nn3ccc(C(=O)N(CCC(C)C)CCC(C)C)cc3c2CCCN2CCCCC2)cc1" ?
Result: 1 to 5 µM

Q: # lookup: IC50 of CC(C)CCN(CCC(C)C)C(=O)c1ccn2nc(-c3ccc(C(C)O)cc3)c(CCCN3CCOCC3)c2c1 (centres unmarked)
Result: 1 to 5 µM
